test system: CCRIS mutagenicity, Ames/micronucleus/aberration tests; assay: CCRIS mutagenicity studies; conditions: Test System: AMES SALMONELLA TYPHIMURIUM; Strain/Indicator: TA98; Metabolic Activation: RAT, LIVER, S-9; Method: STANDARD PLATE
Calls of active or inactive are those of the source. No rule for the calls is given here.
Entry note: the call must match one of true (1) for active, false (0) for inactive

Hi, sorry to bother you, what did the test record for COP(=O)(OC)Oc1ccc([N+](=O)[O-])c(C)c1 ?
true (1)

Hi, sorry to bother you, what did the test record for O=[N+]([O-])c1c2ccccc2cc2ccccc12 ?
true (1)

Hi, sorry to bother you, what did the test record for [O-]/[N+](=N\O)c1ccccc1 ?
false (0)

As a next step, examine the compound that follows.
Hi, sorry to bother you, what did the test record for C/C=C(/C(=C/C)c1ccc(O)cc1)c1ccc(O)cc1 ?
false (0)

====

system: CCRIS mutagenicity, Ames/micronucleus/aberration tests; assay: CCRIS mutagenicity studies; conditions: Test System: AMES SALMONELLA TYPHIMURIUM; Strain/Indicator: TA100; Metabolic Activation: NONE; Method: STANDARD PLATE
Active and inactive are the calls of the source. The rule behind the calls is not given here.
measurement_name: mutagenic call

# mutagenic call lookup, item O=[N+]([O-])/C(Br)=C\c1ccccc1
inactive; negative

# mutagenic call lookup, item O=[N+]([O-])c1ccc2c3c(cccc13)-c1cc(O)ccc1-2
active; positive

# mutagenic call lookup, item COc1ccc(CC2CO2)cc1 (stereo not drawn)
active; positive

# mutagenic call lookup, item c1cc2ccc3ccnc4ccc(c1)c2c34
inactive; negative

# mutagenic call lookup, item COc1cccc(C=O)c1O
inactive; negative

Continuing:
# mutagenic call lookup, item O=[N+]([O-])c1cccc(Cl)c1Cl
inactive; negative

# mutagenic call lookup, item c1ccc2c(c1)ccc1[nH]c3ccc4ccccc4c3c12
inactive; negative

# mutagenic call lookup, item CCN(CC)CC#CC(C)(C)OC(=O)C(O)(c1ccccc1)C1CCCCC1 (stereo not drawn)
inactive; negative

# mutagenic call lookup, item C[C@]12C=CC3=C4CCC(=O)C=C4CC[C@H]3[C@@H]1CC[C@H]2O
inactive; negative

# mutagenic call lookup, item Cc1ccc(C(=O)c2cc(O)c(O)c([N+](=O)[O-])c2)cc1
inactive; negative

====

system: CCRIS mutagenicity, Ames/micronucleus/aberration tests; assay: CCRIS mutagenicity studies; conditions: Test System: AMES SALMONELLA TYPHIMURIUM; Strain/Indicator: TA1538; Metabolic Activation: RAT, LIVER, S-9, AROCLOR 1254; Method: STANDARD PLATE
Calls of active or inactive are those of the source. How the calls were made is not given here.
Entry note: the call must match one of True (active), False (inactive)

Hi, sorry to bother you, what did the test record for O=Cc1ccccc1[N+](=O)[O-] ?
False

Hi, sorry to bother you, what did the test record for Nc1nc2c(s1)CC[C@@H]1NCCC[C@@H]21 ?
False

Hi, sorry to bother you, what did the test record for C#C[C@]1(O)CC[C@H]2[C@@H]3CCC4=CC(=O)CC[C@@H]4[C@H]3CC[C@@]21C ?
False

Hi, sorry to bother you, what did the test record for COc1cc(N=Nc2ccccc2)ccc1N ?
True

Hi, sorry to bother you, what did the test record for C[n+]1cccc(C(=O)[O-])c1 ?
False

Continuing:
Hi, sorry to bother you, what did the test record for Nc1nc2ccc([N+](=O)[O-])cc2s1 ?
True

Hi, sorry to bother you, what did the test record for CCN(CC)c1ccc(N=Nc2ccc(N=Nc3c(S(=O)(=O)O)cc4ccc(N)cc4c3O)c(OC)c2)cc1 ?
True

Hi, sorry to bother you, what did the test record for O=C(O)CN(CCN(CC(=O)O)CC(=O)O)CC(=O)O ?
False

Hi, sorry to bother you, what did the test record for O=C(O)O ?
False

Hi, sorry to bother you, what did the test record for C[C@H](CCC(=O)NCCS(=O)(=O)O)[C@H]1CC[C@H]2[C@@H]3C[C@H](O)[C@@H]4C[C@H](O)CC[C@]4(C)[C@H]3CC[C@]12C ?
False

====

tested on: CCRIS mutagenicity, Ames/micronucleus/aberration tests; assay: CCRIS mutagenicity studies; settings: Test System: AMES SALMONELLA TYPHIMURIUM; Strain/Indicator: TA98; Metabolic Activation: S-9
Activity calls are given as the source filed them. No rule for the calls is given here.
Entry note: the call must match one of active, inactive

Sample answers from the record:
Hi, sorry to bother you, what did the test record for CC(C)COP(=S)(OCC(C)C)SCCl ?
inactive

Hi, sorry to bother you, what did the test record for O=C1OCCN1N=Cc1ccc([N+](=O)[O-])o1 ?
active

Hi, sorry to bother you, what did the test record for COS(=O)(=O)OC ?
active

Hi, sorry to bother you, what did the test record for O=C1CCCc2cc3c(cc21)c([N+](=O)[O-])cc1ccccc13 ?
active

As a next step, examine the compound that follows.
Hi, sorry to bother you, what did the test record for C#C[C@]1(O)CC[C@H]2[C@@H]3CCC4=CC(=O)CC[C@@H]4[C@H]3CC[C@@]21C ?
inactive

====

test system: CCRIS mutagenicity, Ames/micronucleus/aberration tests; test: CCRIS mutagenicity studies; conditions: Test System: Ames Salmonella typhimurium; Strain/Indicator: TA102; Metabolic Activation: None; Method: Preincubation
Calls of active or inactive are those of the source. How the calls were made is not given here.
Entry note: the call must match one of True = active, False = inactive

Hi, sorry to bother you, what did the test record for Nc1ccc(N)cc1 ?
False

Hi, sorry to bother you, what did the test record for COc1ccc(N/C=C/C2=[N+](C)c3ccccc3C2(C)C)c(OC)c1 ?
False

Continuing:
Hi, sorry to bother you, what did the test record for O=c1c2ccccc2c(=O)c2c1ccc1c3ccc4c(=O)c5c(ccc6c7ccc8c(=O)c9ccccc9c(=O)c8c7[nH]c65)c(=O)c4c3[nH]c12 ?
False

Hi, sorry to bother you, what did the test record for O=C(Nc1cccc2c(=O)c3c(ccc4c5cc(NC(=O)c6ccccc6)c6c(=O)c7ccccc7c(=O)c6c5[nH]c43)c(=O)c12)c1ccccc1 ?
False

Hi, sorry to bother you, what did the test record for Nc1ccc(-c2ccc(N)c(Cl)c2)cc1Cl ?
True

====

System: CCRIS mutagenicity, Ames/micronucleus/aberration tests
Assay: CCRIS mutagenicity studies
Details: Test System: AMES SALMONELLA TYPHIMURIUM; Strain/Indicator: TA98; Metabolic Activation: NONE; Method: PREINCUBATION
Excerpt: The CCRIS database contains chemical records with carcinogenicity, mutagenicity, tumor promotion, and tumor inhibition test results. It was developed by the National Cancer Institute (NCI). Data are derived from studies cited in primary journals, current awareness tools, NCI reports, and other sources. Test results have been reviewed by experts in carcinogenesis and mutagenesis. CCRIS provides historical information from the years 1985 - 2011. It is no longer updated. […]
Activity calls are given as the source filed them. The rule behind the calls is not given here.
Entry note: the call must match one of 1 (yes) for active, 0 (no) for inactive

Sample answers from the record:
Hi, sorry to bother you, what did the test record for C1CCC2CCCCC2C1 (stereo not drawn) ?
0 (no)

Hi, sorry to bother you, what did the test record for CCC(C(N)=O)(C(N)=O)c1ccccc1 ?
0 (no)

Hi, sorry to bother you, what did the test record for Cc1cccc2c([N+](=O)[O-])cccc12 ?
1 (yes)

Hi, sorry to bother you, what did the test record for NC(=O)c1ccccc1C(N)=O ?
0 (no)

Hi, sorry to bother you, what did the test record for O=[N+]([O-])c1ccc(CCO)cc1 ?
1 (yes)

Hi, sorry to bother you, what did the test record for COc1cc(OC)c(OC)cc1C=O ?
0 (no)

Hi, sorry to bother you, what did the test record for S=c1[nH]c2ccccc2[nH]1 ?
0 (no)

Hi, sorry to bother you, what did the test record for O=Cc1ccc(Cl)cc1 ?
0 (no)

Continuing:
Hi, sorry to bother you, what did the test record for O=[N+]([O-])c1cc(O)c2ccc3cccc4ccc1c2c34 ?
1 (yes)

Hi, sorry to bother you, what did the test record for Cc1c2cccc(C)c2nc2c1ccc1ccccc12 ?
1 (yes)

Hi, sorry to bother you, what did the test record for c1ccc2c(c1)COC2 ?
1 (yes)

Hi, sorry to bother you, what did the test record for Oc1ccc(Cl)cc1Cl ?
0 (no)

Hi, sorry to bother you, what did the test record for NCC(=O)CCC(=O)O ?
0 (no)

Hi, sorry to bother you, what did the test record for CCN(CC(O)c1ccc([N+]#N)c([O-])c1)N=O (stereo not drawn) ?
1 (yes)

Hi, sorry to bother you, what did the test record for O=C1CSC(=S)N1 ?
0 (no)

Hi, sorry to bother you, what did the test record for C=Cc1ccccc1Cl ?
0 (no)

Hi, sorry to bother you, what did the test record for CCCCC(CC)COC(=O)c1cccc(C(=O)OCC(CC)CCCC)c1 (stereo not drawn) ?
0 (no)

Hi, sorry to bother you, what did the test record for C=CC=O ?
1 (yes)

====

Test system: CCRIS mutagenicity, Ames/micronucleus/aberration tests
Assay: CCRIS mutagenicity studies
Conditions: End Point: IN VITRO CHROMOSOMAL ABERRATIONS; Test System: CHL CELLS; Metabolic Activation: NONE
From the text: The CCRIS database contains chemical records with carcinogenicity, mutagenicity, tumor promotion, and tumor inhibition test results. It was developed by the National Cancer Institute (NCI). Data are derived from studies cited in primary journals, current awareness tools, NCI reports, and other sources. Test results have been reviewed by experts in carcinogenesis and mutagenesis. CCRIS provides historical information from the years 1985 - 2011. It is no longer updated. […]
Active and inactive are the calls of the source. The rule behind the calls is not given here.
Entry note: the call must match one of t (active), f (inactive)

Sample answers from the record:
Hi, sorry to bother you, what did the test record for O=[N+]([O-])c1ccc(Cl)cc1 ?
t

Hi, sorry to bother you, what did the test record for [N-]=[N+]=NCc1ccccc1 ?
f

Hi, sorry to bother you, what did the test record for COS(=O)(=O)OC ?
t

Hi, sorry to bother you, what did the test record for C=CCBr ?
t

As a next step, examine the molecule that follows.
Hi, sorry to bother you, what did the test record for Nc1ccc(N)cc1 ?
t
